- Test Method Notes: NCI Yeast Anticancer Drug Screen. Data for the bub3 strain (AID 167)
- Measurement Conditions: S. cerevisiae bub3 mutant strain, at 50.0 µM
About 79,000 compounds went through this panel and 15% of them were active in at least one assay; those are over-represented in the sample as a whole. The source made the active and inactive calls. Cut-off read from the data, not from the text of the source: active = growth inhibition above about 70%; inactive = the rest.
Outcome codes: active, inactive

INSERT INTO results (compound, category) VALUES
  ('[Cl][Pt+2][Cl].[NH-]c1cc2ccccc2cc1[NH-]', 'inactive'),
  ('O=c1c2c(F)c(F)c(F)c(F)c2sc2nccn12', 'active'),
  ('O=C(Nc1ccccc1)c1cccc2ccccc12', 'inactive'),
  ('O=C1OC(C2OC(=O)C(=O)C2C(=O)c2ccc([N+](=O)[O-])cc2)C(C(=O)c2ccc([N+](=O)[O-])cc2)C1=O (stereo not given)', 'inactive'),
  ('Cn1c(=S)sc2nc3ccccc3n2c1=S', 'active'),
  ('COC(=O)c1ccc(-c2ccccc2)cc1', 'active'),
  ('Oc1ccc(N=Nc2ccccc2)cc1', 'active'),
  ('CCOC(=O)C(=Cn1c(=S)[nH]c2ccc([N+](=O)[O-])cc21)C(=O)OCC', 'inactive'),
  ('COc1cccc2c1C(=O)c1c(O)c3c(c(O)c1C2=O)C[C@@](O)(/C(C)=N/NS(C)(=O)=O)C[C@@H]3OC1CC(N)C(O)C(C)O1 (stereo not given in full)', 'active'),
  ('CC1CCN(C(=S)NNC(C)c2cc3ccccc3cn2)CC1 (stereo not given)', 'active');

* * *

- Test Method Notes: NCI Yeast Anticancer Drug Screen. Data for the sgs1 mgt1 strain (AID 161);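 note: 0% = growth of cultures given vehicle only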
- Measurement Conditions: S. cerevisiae sgs1 mgt1 strain, at 5.0 µM (retest, dose inferred, filed as 0.5)
About 79,000 compounds went through this panel and 15% of them were active in at least one assay; those are over-represented in the sample as a whole. Active and inactive are the calls of the source. No stated cut-off is given here; in the data, active means growth inhibition above about 70%; inactive means the rest.
Outcome codes: true (1) for active, false (0) for inactive

INSERT INTO results (compound, category) VALUES
  ('CC1/C(=N\O)CC(c2ccccc2)N(C)C1c1ccccc1 (stereo not given)', 'true (1)'),
  ('O=C(/N=C1\N=Nc2nc(C(C(=O)c3cccs3)c3nc4n(c3O)/C(=N/C(=O)Nc3ccc(Cl)cc3)N=N4)c(O)n21)Nc1ccc(Cl)cc1 (stereo not given)', 'false (0)'),
  ('N=c1c2ccccc2cc2c3ccccc3ccn12', 'false (0)'),
  ('CCS/C(SC)=C(/c1ccccc1)[P+](c1ccccc1)(c1ccccc1)c1ccccc1', 'true (1)'),
  ('Oc1c(Br)ccc2c(O)c(Br)ccc12', 'false (0)'),
  ('CCc1ccc2ccc3ccc(CC)nc3c2n1', 'true (1)'),
  ('CCC1=C(C)/C(=C/c2[nH]c(C(Br)Br)c(CC)c2C)N=C1C(Br)Br', 'false (0)'),
  ('CCC(c1ccc(O)cc1)C(CC)c1ccc(O)c(CN(C)C)c1 (stereo not given)', 'false (0)'),
  ('CCC(C)(C)c1cc(Br)c(NS(=O)(=O)c2ccc(NC(C)=O)cc2)c(Br)c1', 'false (0)'),
  ('Cc1ccc(C(OS(=O)(=O)c2ccc(C)cc2)C(F)(F)F)cc1 (stereo not given)', 'false (0)'),
  ('O=C(CSc1nnc(Cc2ccccc2)o1)Nc1ccc(Cl)cc1', 'false (0)'),
  ('O=C(c1ccccc1)c1ccc(Br)cc1O', 'false (0)'),
  ('N=C(N)c1ccc(SCCCCCSc2ccc(C(=N)N)cc2)cc1', 'false (0)'),
  ('CC(=O)[C@H]1CC[C@H]2[C@@H]3CC[C@H]4C[C@@H](N5CCOCC5)CC[C@]4(C)[C@H]3CC[C@]12C', 'true (1)'),
  ('CCCC(C(=O)OCCN1CCCC1(C)C)C1CCCC1 (stereo not given)', 'false (0)'),
  ('C/C(=N\NC(N)=S)c1ccc(C2CCCCC2)cc1', 'true (1)'),
  ('COc1ccc(/C(C#N)=C(/N)SCc2ccccc2Cl)cc1', 'false (0)'),
  ('COc1cccc2c1C(=O)c1c(O)c3c(c(O)c1C2=O)CC(O)(C(C)=O)CC3OC1CC(N/C(C)=C/C(C)=O)C(O)C(C)O1 (stereo not given)', 'false (0)'),
  ('CN(C)C(=S)N/N=C/c1ccccn1', 'true (1)'),
  ('COC1=CC(=O)[C@H]2CC(C)=CC[C@]2(C)C1=O', 'false (0)'),
  ('c1ccc(COc2ccc(C[P+](c3ccccc3)(c3ccccc3)c3ccccc3)cc2)cc1', 'true (1)'),
  ('C=Nc1ccc2ccccc2c1Cc1c(O)ccc2ccccc12', 'false (0)'),
  ('O=C(O)c1cc2c3ccccc3sc2c2ccccc12', 'false (0)'),
  ('COC1/C=C\OC2(C)Oc3c(C)c(O)c4c(O)c(c5[nH]c(-c6ccccc6)nc5c4c3C2=O)NC(=O)/C(C)=C\C=C\C(C)C(O)C(C)C(O)C(C)C(OC(C)=O)C1C (stereo not given)', 'false (0)'),
  ('Clc1ccc(/C=N\Nc2ccccc2)c(Cl)c1', 'false (0)');

* * *

- Test Method Notes: NCI Yeast Anticancer Drug Screen. Data for the sgs1 mgt1 strain (AID 161);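 note: 0% = growth of cultures given vehicle only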
- Measurement Conditions: S. cerevisiae sgs1 mgt1 strain, at 5.0 µM (retest, dose inferred, filed as 0.5)
The panel holds about 79,000 compounds, 15% with a hit somewhere; the sample as a whole holds those more often. Activity calls are given as the source filed them. Rule as the data show it: active = growth inhibition above about 70%; inactive = the rest.
Outcome codes: 1 = active, -1 = inactive

INSERT INTO assay_data (molecule, category) VALUES
  ('CC(C)CCOC(=O)c1ccc(O)cc1.[Zn+2]', -1),
  ('O=C1O/C(=C(\Cc2ccccc2)c2ccccc2)N(c2ccccc2)C1=O', -1),
  ('NC(Cc1ccc(O)cc1O)C(=O)O (stereo not drawn)', -1),
  ('O=C(Cl)C(c1ccccc1)(c1ccccc1)c1ccccc1', -1),
  ('CC(=O)NC1CCCCC1c1ccc(C2CCCCC2NC(C)=O)cc1 (stereo not drawn)', -1),
  ('O=Cc1c(O)ccc2ccccc12.[Cu+2]', -1),
  ('OC(CC(CC(O)(C(F)(F)F)C(F)(F)F)=NN=C(CC(O)(C(F)(F)F)C(F)(F)F)CC(O)(C(F)(F)F)C(F)(F)F)(C(F)(F)F)C(F)(F)F', -1),
  ('C/C(=N/NC(N)=S)C(C)C', -1),
  ('CN(C)C(=S)/N=c1\ss/c(=N\C(=S)N(C)C)n1Cc1ccco1', -1),
  ('COc1ccc2c(c1)C(Br)CCC(Br)C2=O (stereo not drawn)', -1),
  ('CCCCCC/C=C\CCCCCCCCCc1c(O)c(OC)cc(O)c1CN(C)C', -1),
  ('CCCCCCCCCCNC(=O)C[n+]1cccc(C(=O)Nc2ccccc2)c1', -1),
  ('CN(C)CC/C(=N\Nc1ccc(Cl)cc1Cl)c1ccccc1', 1);

* * *

- Test Method Notes: NCI Yeast Anticancer Drug Screen. Data for the bub3 strain (AID 167)
- Measurement Conditions: S. cerevisiae bub3 mutant strain, at 50.0 µM
About 79,000 compounds went through this panel and 15% of them were active in at least one assay; those are over-represented in the sample as a whole. Activity calls are given as the source filed them. Cut-off read from the data, not from the text of the source: active = growth inhibition above about 70%; inactive = the rest.
Outcome codes: active, inactive

INSERT INTO assay_data (sample_smiles, category) VALUES
  ('CN1C(=O)CCCCCCCCCCSc2ccccc21', 'active'),
  ('O=c1c(-c2ccccc2)coc2cc(O)ccc12', 'active'),
  ('CC(C)(S[S-])S[S-].[Ti].[c-]1[c-][c-][cH-][c-]1.[c-]1[c-][c-][cH-][c-]1', 'inactive'),
  ('CCCCc1c2c(nc3c1CCc1cc4cc5c(nc4nc1-3)-c1nc3c(c(CCCC)c1CC5)CCCC3=O)C(=O)CCC2', 'active');

* * *

- Test Method Notes: NCI Yeast Anticancer Drug Screen. Data for the sgs1 mgt1 strain (AID 161);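 note: 0% = growth of cultures given vehicle only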
- Measurement Conditions: S. cerevisiae sgs1 mgt1 strain, at 50.0 µM
- Protocol: Growth inhibition of yeast strains with defined genetic alterations is measured as a screen for potential anti-cancer activity. Selected strains with alterations in DNA damage repair or cell cycle control were exposed to compounds and growth inhibition was measured relative to vehicle treated controls. The strain used in this assay is sgs1 mgt1
The panel holds about 79,000 compounds, 15% with a hit somewhere; the sample as a whole holds those more often. The source made the active and inactive calls. No stated cut-off is given here; in the data, active means growth inhibition above about 70%; inactive means the rest.
Outcome codes: true (1) (active), false (0) (inactive)

INSERT INTO measurements (compound, category) VALUES
  ('Cc1ccccc1N1C(=O)c2ccccc2C1=O', 'true (1)'),
  ('CCCCCCCCN(CCCCCCCC)C(=O)C(C)O (configuration not stated)', 'true (1)'),
  ('O=C1C=CC(=O)C2C1Cc1ccccc1C2c1ccccc1 (configuration not stated)', 'true (1)'),
  ('CCCCCN(C(=O)CCl)c1ccccc1', 'false (0)'),
  ('C=C1CC[C@H]2C(C)=CC[C@@H]3[C@H](OC(=O)[C@H]3CN3CCN(c4ccc(C)c([N+](=O)[O-])c4)CC3)[C@@H]12', 'true (1)'),
  ('CCOC(=O)c1cc(Cl)nc2ccc(OC)cc12', 'false (0)'),
  ('CCOC(=O)NN(C(=O)OCC)c1ccc(N=Nc2ccc(OC)cc2)n1C', 'true (1)'),
  ('C=C1CC23CCC4C(C)(C(=O)O)CCCC4(C)C2CCC1C3 (configuration not stated)', 'true (1)'),
  ('N=C(N)c1ccc(SCCCCCSc2ccc(C(=N)N)cc2)cc1', 'true (1)'),
  ('COc1cc(/C=C/C(=N\NC(=O)c2ccccc2)c2sc(Nc3ccc(Cl)c(Cl)c3)nc2C)ccc1O', 'true (1)'),
  ('O=c1c(-c2ccccc2)c(-c2ccccc2)c1=O', 'false (0)'),
  ('N#CC1Sc2ccccc2N1C(=O)c1ccccc1 (configuration not stated)', 'true (1)');
